molecular target: recombinant homotrimeric HA A/South Carolina/1/18 H1N1 (Influenza A virus A/South Carolina/1/18 (H1N1)); test: protein microarray, purified IgG, trimeric HA; details: remark: other sources report otherwise
Friendly reminder: Trimeric HA Binding: RLU below 200 RLU is fulfilled, at or above is not fulfilled.

Examples from the recorded data:
Lookup: Please determine if TCN-529 (5297_H01) (antibody, V domains shown) VH: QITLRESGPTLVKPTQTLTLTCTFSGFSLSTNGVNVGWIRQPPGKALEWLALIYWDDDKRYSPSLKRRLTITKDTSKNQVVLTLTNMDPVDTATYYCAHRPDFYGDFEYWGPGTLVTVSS VL: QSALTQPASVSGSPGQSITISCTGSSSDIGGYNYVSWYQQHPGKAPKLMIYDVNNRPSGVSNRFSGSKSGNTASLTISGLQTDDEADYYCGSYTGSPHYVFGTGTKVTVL is below 200 RLU in terms of Trimeric HA Binding: RLU.
Found: not fulfilled

Lookup: Please determine if TCN-552 (5249_I23) (antibody, V domains shown) VH: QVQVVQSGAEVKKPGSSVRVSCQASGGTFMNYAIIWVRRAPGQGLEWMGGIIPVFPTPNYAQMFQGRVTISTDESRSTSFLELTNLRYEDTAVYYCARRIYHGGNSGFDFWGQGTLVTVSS VL: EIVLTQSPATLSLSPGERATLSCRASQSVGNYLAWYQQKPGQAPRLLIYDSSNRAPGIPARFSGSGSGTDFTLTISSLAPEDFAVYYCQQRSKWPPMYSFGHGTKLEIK is below 200 RLU in terms of Trimeric HA Binding: RLU.
Found: not fulfilled

Lookup: Please determine if TCN-530 (5248_H10a) (antibody, V domains shown) VH: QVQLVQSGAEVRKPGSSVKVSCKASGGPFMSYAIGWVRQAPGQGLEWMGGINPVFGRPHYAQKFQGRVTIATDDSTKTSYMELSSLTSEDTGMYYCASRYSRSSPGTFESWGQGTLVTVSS VL: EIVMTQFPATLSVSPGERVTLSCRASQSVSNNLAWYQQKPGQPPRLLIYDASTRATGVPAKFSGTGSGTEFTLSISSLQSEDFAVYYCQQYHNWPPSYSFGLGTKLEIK is below 200 RLU in terms of Trimeric HA Binding: RLU.
Found: not fulfilled

Lookup: Please determine if TCN-541 (5062_M11) (antibody, V domains shown) VH: QVQLQESGPGLVKPSETLSLTCTVSGGSINSYYWNWIRQPPGKGLEWIGYIYHSGSTNYNPSLKSRVTISVDTSKNQFSLQLSSVTAADTAVYYCARLRTDYGDPDSVYYYGMDVWGQGTTVTVSS VL: SYELTQPPSVSVSPGQTARITCSGDALPKQNAYWYQQKPGQAPVLLIYKDSERPSGIPERFSGSSSGTTVTLTISGVQAEDEADYYCQSADSSGTSWVFGGGTKLTVL is below 200 RLU in terms of Trimeric HA Binding: RLU.
Found: fulfilled

Would you kindly look at the next entry?
Lookup: Please determine if TCN-538 (3206_O17) (antibody, V domains shown) VH: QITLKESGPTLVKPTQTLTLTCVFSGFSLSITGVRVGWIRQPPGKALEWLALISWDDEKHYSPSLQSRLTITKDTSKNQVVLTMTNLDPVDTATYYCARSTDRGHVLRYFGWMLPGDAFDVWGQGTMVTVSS VL: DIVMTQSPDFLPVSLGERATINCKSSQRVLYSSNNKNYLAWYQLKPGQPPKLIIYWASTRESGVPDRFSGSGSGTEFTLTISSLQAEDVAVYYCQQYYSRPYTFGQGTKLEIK is below 200 RLU in terms of Trimeric HA Binding: RLU.
Found: not fulfilled
